Kindly state IC50 for each of the entries shown.
- Test Details: Binding affinity to mouse anti-dsDNA monoclonal antibody R4A assessed as inhibition of RA4 binding to DWEYS peptide preincubated for 1 hr followed by DWEYS peptide addition measured after 1 hr by ELISA
Give bare numbers, in µM.

// below: answered molecules
CC(C)(C)NC[C@@H]1CNCCN1C[C@@H](O)C[C@H](CN[C@H]1c2ccccc2C[C@H]1O)Cc1ccccc1	42.7
CNCCCN[C@H](CN[C@@H](Cc1ccccc1)C[C@H](O)[C@H](Cc1ccccc1)NCCOc1c(C)cccc1C)C(C)C	2.08
CC(C)(C)NC[C@@H]1CC2CCCCC2CN1C[C@@H](O)[C@H](Cc1ccccc1)NC[C@H](CCN)NCC1Nc2ccccc2CC1O (some centres undefined)	4.5

Now look at this one.
IC50 reading for "Cc1c(O)cccc1CN[C@@H](CSc1ccccc1)[C@H](O)CN1C[C@H]2CCCC[C@H]2C[C@H]1CNC(C)(C)C" : 7.27
